# system.name: T1, human CD40 antigen (ACROBiosystems) (human, UniProt P25942 21-193)
# T1 construct: Bought antigen coated on ELISA plates; construct not described
# assay.method.text: ELISA, coated antigen
Listed here: items and their measured EC50.
Just the number please, in pM, no unit attached.

anti-CD40 monoclonal antibody 1608CD (antibody, human IgG2, kappa, V domains shown) VH: EVQLVESGGGLVQPGGSLRLSCAASGFTFSNYYMSWVRQAPGKGLEWVGFIRNKANGYTTEYAASVKGRFTISRDNSKSTLYLQMNRLRAEDTAVYYCARYGGLKVGWYFDLWGQGTLVTVSS VL: DIQMTQSPSSLSASVGDRVTITCRASQSISNYLAWYQQKPGKAPKLLIYAASSLQSGVPSRFSGSGSGTDYTLTISSLQPEDFATYYCQQGSSYPWTFGGGTKVEIKR : 22
anti-CD40 monoclonal antibody 1652CD (antibody, human IgG2, kappa, V domains shown) VH: EVQLVESGGGLVQPGGSLRLSCAASGFTFSDYYMSWVRQAPGKGLEWVGFIRNKANAYTTEYAASVKGRFTISRDNSKNTLYLQMNSLRAEDTAVYYCARYGGLRQGWYFDVWGQGTLVTVSS VL: DIQMTQSPSSLSASVGDRVTITCRASQDIRNYLNWYQQKPGKAPKLLIYYTSRRDSGVPSRFSGSGSGTDYTLTISSLQPEDFATYFCQQGKTLPWTFGGGTKVEIKR : 22

Qu. What value of EC50 has been recorded for this entry: anti-CD40 monoclonal antibody 1653CD (antibody, human IgG2, kappa, V domains shown) VH: EVQLVESGGGLVQPGGSLRLSCAASGFTFSDYYMSWVRQAPGKGLEWVGFIRNKANAYTTEYAASVKGRFTISRDNSKSTLYLQMNSLRAEDTAVYYCARYGGLKKGWYFDLWGQGTLVTVSS VL: DIQMTQSPSSLSASVGDRVTITCRASQGIRNYLNWYQQKPGKAPKLLIYYTSSLQSGVPSRFSGSGSGTDYTLTISSLQPEDFATYYCQQGINLPWTFGGGTKVEIKR
Ans. 20

Each recorded value in this set is attributed to patent US20250376533A1.
